- EXPERIMENTAL_DETAILS: Human HepG2 cell viability assay in 384 well format
- Assay type: toxicity, cell-based
- Parameters: dose 125 nL, time 70.5 hour; concentration not given beside the values
- SETTINGS: HepG2 cells, read-out: Inhibition
List of cytotoxicity at 70.5 h values.

Would you please look over these solved cases?
| COMPOUND | cytotoxicity at 70.5 h |
| --- | --- |
| O=C(CN1CCOC(Cn2cncn2)C1)NCc1cccs1 (stereo unspecified) | 29.2% |
| CC(C)N1CCC(Nc2ccn(C)n2)C1=O (stereo unspecified) | -3.38% |
| Cc1cc(C(F)(F)F)c2c(C3CCN(S(=O)(=O)N(C)C)CC3)noc2n1 | -9.87% |
| O=C(c1cc(Cl)c2c(c1)OCO2)N1CCCC(n2cncn2)C1 (stereo unspecified) | -4.61% |

Input: Kindly indicate its recorded cytotoxicity at 70.5 h. Item: CNc1cc(C2CCCN2S(=O)(=O)c2cccc(F)c2)ccn1 (stereo unspecified)
Output: 14.1%

Input: Consider the compound `CCc1ccc(C(=O)N2CCC3(CCC(=O)N(CCN(C)C)C3)CC2)[nH]1` . State its measured cytotoxicity at 70.5 h.
Output: -1.77%

* * *

Listed here are molecules together with their documented cytotoxicity at 70.5 h.
- EXPERIMENTAL_DETAILS: Human HepG2 cell viability assay in 384 well format
- Format: toxicity, cell-based
- Set-up: dose 125 nL, time 70.5 hour; concentration not given beside the values
- SETTINGS: HepG2 cells, read-out: Inhibition
Please give a number only; it is taken to be in %.

# example entries with known answers
| MOLECULE | UNIT_SPEC | cytotoxicity at 70.5 h |
| --- | --- | --- |
| COC(=O)NCC(=O)N1CCC(c2cc3ccccc3[nH]2)CC1 | % | -8.79 |
| COc1ccc(COCC(O)CNC(=O)c2cc(C)cc(C)c2)cc1 (stereo not drawn) | % | -11.8 |
| CC(C)c1cnc(CNc2c(F)cccc2-n2cccn2)o1 | % | -4.44 |

Turning to the following molecule.
Input: Read the entry CN1CCC(NC(=O)c2cc(F)cc(Cl)c2O)C1=O (stereo not drawn) and write its reported cytotoxicity at 70.5 h.
Output: -2.94

* * *

- EXPERIMENTAL_DETAILS: Human HepG2 cell viability assay in 384 well format
- Assay type: toxicity, cell-based
- Parameters: dose 125 nL, time 70.5 hour; concentration not given beside the values
- SETTINGS: HepG2 cells, read-out: Inhibition
OBSERVABLE: cytotoxicity at 70.5 h (%)
Answer with a number only, understood to be in %.

# example entries with known answers
| COMPOUND | OBSERVABLE | RESULT_NUMBER |
| --- | --- | --- |
| CCN1CCN(C(=O)C2CC(=O)N(c3cnn(C(C)C)c3)C2)CC1 (stereo unspecified) | cytotoxicity at 70.5 h | -1.53 |
| Cc1cccc(Nc2c(C#N)c(=O)n(C)c(=O)n2C)c1 | cytotoxicity at 70.5 h | -3.97 |
| COCCN1CC[C@]2(CN(Cc3cccnc3)C[C@H]2C)C1=O | cytotoxicity at 70.5 h | -10.8 |
| O=C(NC1CCN(c2ccccc2OC(F)F)C1)c1cccnc1 (stereo unspecified) | cytotoxicity at 70.5 h | -4.78 |
| Cc1cnn(CC2CCCN2C(=O)c2csc(-c3nnc[nH]3)n2)c1 (stereo unspecified) | cytotoxicity at 70.5 h | -5 |

Then there is this compound:
Input: Note cytotoxicity at 70.5 h for the compound shown: `CCSc1ccccc1C(=O)N(CCOC)Cc1ccoc1`
Output: 25

* * *

Examples of compounds with documented cytotoxicity at 70.5 h follow.
- EXPERIMENTAL_DETAILS: Human HepG2 cell viability assay in 384 well format
- Type: toxicity, cell-based
- Design: dose 125 nL, time 70.5 hour; concentration not given beside the values
- SETTINGS: HepG2 cells, read-out: Inhibition
Report only the number, with the unit % understood.

Worked set:
| COMPOUND | cytotoxicity at 70.5 h, % |
| --- | --- |
| COc1ccc(Cl)cc1-c1cc(NC(=O)CNC(=O)C2CC2)[nH]n1 | -7.16 |
| Cc1cc(C)c(CNC(=O)NCCc2cccnc2)c(=O)[nH]1 | -10.1 |
| Cc1noc(-c2ccc(N(C)Cc3ccncc3C)nc2)n1 | -5.41 |
| Cc1cc(N2CCC(N(C)C(=O)c3cccs3)CC2)nc(C)n1 | -18.8 |
| Nc1ncc(C(=O)N2CCCC(N)CC2)c(-c2ccccc2)n1 (stereo unspecified) | 7.49 |

Kindly review the next compound as well.
Input: Identify measured cytotoxicity at 70.5 h corresponding to CN(C)CC(=O)N1CCC2(CC(=O)N(c3cccc(C#N)c3)C2)C1 (stereo unspecified)
Output: 4.59

* * *

- EXPERIMENTAL_DETAILS: Human HepG2 cell viability assay in 384 well format
- Format: toxicity, cell-based
- Set-up: dose 125 nL, time 70.5 hour; concentration not given beside the values
- SETTINGS: HepG2 cells, read-out: Inhibition
cytotoxicity at 70.5 h reference
Entry rule: numbers only, all in %.

Input: Annotate the molecule Cc1ccc2[nH]c(C(=O)N3CCCC3Cn3cccn3)cc2c1 (stereo unspecified) with its measured cytotoxicity at 70.5 h.
Output: 4.08

Input: Name the recorded cytotoxicity at 70.5 h of the molecule listed here: `O=C(Cn1cc(-n2cccc2)cn1)NCC1CCC1`
Output: -10.7

Input: Annotate the molecule CCc1ncnc(N2CCCC(c3cc(C(N)=O)[nH]n3)C2)c1F (stereo unspecified) with its measured cytotoxicity at 70.5 h.
Output: -3.89

Input: Report cytotoxicity at 70.5 h, nothing else, for this molecule: `Cc1nc(NC(=O)OC(C)(C)C)sc1C#N`
Output: -6.61

Input: Supply recorded cytotoxicity at 70.5 h for `Cn1cc(NC(=O)c2ccccn2)cc(Cl)c1=O` here.
Output: -7.7

Input: Determine from records and report cytotoxicity at 70.5 h for `Cc1ccsc1CN1CCC(c2cc(C(C)C)n[nH]2)CC1`
Output: -3.28

* * *

Collected cytotoxicity at 70.5 h values appear next to each entry.
- EXPERIMENTAL_DETAILS: Human HepG2 cell viability assay in 384 well format
- Type: toxicity, cell-based
- Design: dose 125 nL, time 70.5 hour; concentration not given beside the values
- SETTINGS: HepG2 cells, read-out: Inhibition
API: value field is a number in %; no unit string.

| COMPOUND | cytotoxicity at 70.5 h, % |
| --- | --- |
| CCc1cc(CN(Cc2cccnc2)C2CN3CCC2CC3)on1 (stereo unspecified) | 24.6 |
| CS(=O)(=O)N1CCOC2(CCCC2)C1 | -5.25 |
| O=C([C@@H]1COC[C@H]2CN(c3ccncn3)C[C@H]21)N1CCCC1 | 10.6 |
| c1cnn(C2CN(Cc3noc(C4CC4)n3)C2)c1 | -7.11 |
| CCNc1ncc(CN2C[C@@H](CN3CCC(CO)CC3)[C@@H](CO)C2)cn1 | -2.73 |

# input for lookup
Input: Specify reported cytotoxicity at 70.5 h for the compound shown: Cc1cnc(CNC(=O)N(CCCO)C2CCc3ccccc32)s1 (stereo unspecified)
Output: 0.605

* * *

Below: a set of entries, each annotated with reported cytotoxicity at 70.5 h.
- EXPERIMENTAL_DETAILS: Human HepG2 cell viability assay in 384 well format
- Assay type: toxicity, cell-based
- Set-up: dose 125 nL, time 70.5 hour; concentration not given beside the values
- SETTINGS: HepG2 cells, read-out: Inhibition
Return type: number; implicit unit %.

Solved cases below.
| COMPOUND | OBSERVABLE | RESULT_NUMBER |
| --- | --- | --- |
| CCN1CC(C(=O)NC(C)(C)CC(C)(C)C)CC1=O (stereo unspecified) | cytotoxicity at 70.5 h | -1.71 |
| CCN(CC1CCOC1)C(=O)c1cc(Cl)c2c(c1)OCO2 (stereo unspecified) | cytotoxicity at 70.5 h | 26.7 |
| CC(C)(CNC(=O)C1(c2cccc(Br)c2)CCOCC1)C(=O)O | cytotoxicity at 70.5 h | -0.158 |
| CCc1cc(O)n2nc(C3CCN(C(=O)c4cccnc4)CC3)cc2n1 | cytotoxicity at 70.5 h | 21.2 |
| Nc1ncc(C(=O)N2CCC3(CCCO3)CC2)c(-c2ccccc2)n1 | cytotoxicity at 70.5 h | -2.3 |

Let's switch to this compound now.
Input: State, in one line, measured cytotoxicity at 70.5 h of `CCc1cc(N2CCC(F)(F)CC2)n2nc(C)c(C)c2n1`
Output: -7.1

* * *

In this section, each of the molecules is paired with its reported cytotoxicity at 70.5 h.
- EXPERIMENTAL_DETAILS: Human HepG2 cell viability assay in 384 well format
- Assay type: toxicity, cell-based
- Set-up: dose 125 nL, time 70.5 hour; concentration not given beside the values
- SETTINGS: HepG2 cells, read-out: Inhibition
Reply with just the number (in %).

Some solved entries appear below for comparison.
| MOLECULE | OBSERVABLE | UNIT_SPEC | RESULT_NUMBER |
| --- | --- | --- | --- |
| O=C1CC[C@@H](CN(Cc2ccncc2)Cc2nc(-c3cccs3)no2)N1 | cytotoxicity at 70.5 h | % | -3.48 |
| CCC(NCc1cccc(Cl)c1)c1ccccc1OCC(=O)NC (stereo unspecified) | cytotoxicity at 70.5 h | % | -1.52 |
| O=C([C@H]1CC[C@@H]2[C@@H](CCN2Cc2ccsc2)O1)N1CCOCC1 | cytotoxicity at 70.5 h | % | -6.53 |
| NCc1cn(CC2CCCN(C(=O)NCc3ccc(Cl)cc3)C2)nn1 (stereo unspecified) | cytotoxicity at 70.5 h | % | 2.71 |
| COCCNC(=O)[C@H]1CN(c2ncccn2)C[C@H]2OCC[C@@H]12 | cytotoxicity at 70.5 h | % | -15.6 |

Input: Read off the recorded cytotoxicity at 70.5 h for O=C1N(CCC2CCCCC2)CCCC1(O)CNCCc1ccccc1 (stereo unspecified)
Output: 0.277

Input: Annotate the molecule `CCCc1nc(C)cc(N2CCC3(CCC(=O)N(CC(N)=O)C3)CC2)n1` with its measured cytotoxicity at 70.5 h.
Output: -8.54

Input: Give cytotoxicity at 70.5 h for the following molecule: `CC(C)c1ncncc1C(=O)NCCN1CCCS1(=O)=O`
Output: -12.7
